Assay Explanation: yeast display, Sf9 membrane polyspecificity reagent, FACS + sequencing; frameworks hold sequencing errors
Readout Name: polyreactivity (PSR sort gate)

1) QVQLVESGGGLVQAGGSHRLSCAASGSIFYYYTMGWYRQAPGKERELVASITGGGSTYYADSVKGRFTISRDHAKNTVYLQMNSLKPEDTAVYYCAAYSLRPRWRREYDYWGQGTQVTVSS ... high polyreactivity
2) QVQLVESGGGLVQAGGSLRLSCAASGRTFVRNTMGWYRQAPGKERELVAAISGGGSTYYADSVKGRFTISRDNAKNTVYLQMNSLKPEDTAVYYCAATTRRQGGKRFDYWGQGTQVTVSS ... high polyreactivity
3) QVQLVESGGGLVQAGGSLRLSCAASGSIFLVNAMGWYRQAPGKERELVASITWRGGRTYYADSVKGRFTISRDNAKNTVYLEMNSLKPEDTAVYYCAARNYRTGERLRYDYWGQGTQVTVSS ... low polyreactivity
4) QVQLVESGGRLVQAGGSLRLSCAASGSIFYYYAMGWYRQAPGKERELVAAINGGDTYYADSVKGRFTISRDNAKNTVYLQMNSLKPEDTAVYYCAAEGVTVEWDYDYLGQGTQVTVSS ... low polyreactivity
5) QVQLVESGGGLVQAGGSLRLSCAASGITFHDNAMGWYRQAPGKERELVAGSTSGGSTFYADSVKGRFTISRDNAKNTVYLQMNSLKPEDTAVYYCAARRSKYRRGGGYYWGQGTQVTVSS ... high polyreactivity
6) QFQLVESGGGLDQAGGSLRLSCAASGLTFYGYAMGWYRQAPGKERELVAAITWGGGSTYYADSVKGRFTISRDKAKNTVYLQMNSLKPEETEVYYCNADYYLPAIRYDYWGQGTKVTVSS ... low polyreactivity
7) QVQLVESGGGLVQAGGSLRLSCAASGILLFNAMGWYRQAPGKERELVAPINSGGSTNYADSVKGRFTISRDNAKNTVYLQMKSLKPDDTAVYYCGKDTPFTLRVWAEGGMDYWGEGTQVTVSS ... low polyreactivity
8) QFQLVESGGGLVQAGGSLRLSCAASGGILYRYAMGWYRPAPGKERELVAAIRWSGGSTYYADSVKGRFTISRDNAKNTVYLQMNSLKPEDTAVYYCAADVYYYHVLDFDYWGQGTQVTVSS ... low polyreactivity
9) QVQLVESRAVLVQAGGSLRLSCAASGSIFYVYAMGWYRQAPGKERELVAAISSSSDSTYADSVKGRFTISRDNAKNTVYLQMNSLKPEDTAVYYCATAWYYGIVRGGLPYDYWGHGTQVTVSS ... low polyreactivity
10) QVQLVESGGGLVQAGGSLRLSCAASGSIFSKNAMGWYRQAPGKERELVAAISSSGGITYYADSVKVRFTISRDNANNTVYLQMNSLKPEDTAFYYCATLGGAIRQAFEYWGQGTQVNVSS ... low polyreactivity
11) QVQLVESGGGLVHAGGSLRLSCAASGRIFGVYAMGWYRQAPGKERELVAAISEGGGSTNYADSVKGRFTISRDNAKNTVYLQMNSLKPEDTAVYYCAATYRTGVRRYYSWGQGTQVTVSS ... low polyreactivity

* * *

Assay Explanation: yeast display, Sf9 membrane polyspecificity reagent, FACS + sequencing; frameworks hold sequencing errors
Readout Name: polyreactivity (PSR sort gate)

1) QVQLVESGGGLVQAGGSLRLSCADSGSIFYVYAMGWYRQAPGKERELVATISSSAGSTYYADSVKGRFTISRDNAKNTVYLQMNSLKPEDTAVYYCNADSFLSWVYRYVYYGSGYWGQGTQVTVSS ... low polyreactivity
2) QVQLVESGGGLVQAGGSLRLSCAASGRTFGFYAMGWYRQAPGKEREFVAAIYKSGGSTYYADSVKGRFTISRDIANNTVYLQMISLKPEDTAVYYCIKKVGSYYRSYYYWGQGTQVTVSS ... high polyreactivity
3) QVQLVESGGGLVQAGGSLRLSCAASGFIFYYYAMGWYRQAPGKERELVAAISTSGGSTYYADSVKGRFTISRDNAKNTVYLQMNSLKPEDTAVYYCAAKIIGRPRTTDRYDYWGQGTQVTVSS ... low polyreactivity
4) QVQLVESGGGLVQAGGSLRLSCAASGFTFFLYAMGWYRQAPGKEMELVAAIHSRGGSTYYADSVKGRFTISRDNAKNTVSLQMNSLKPEDTAVYYCAAYIPRSSWGYDYWGQGTQVTVSS ... high polyreactivity
5) QVQLVESGGGLVQAGGFLRLSCASSGSTFIYYAMGWYREAPGKERELVAAISWSGGRTYYADAVKGRFTISRDNAKNTVYLQMTSLKPEDTAVDYCAAESYYSDGYPGVDYWGQATQVTVSS ... high polyreactivity
6) QVQLVESGGGLVQAGGSLRLSCAASGSIFLHNAMGWYRQAPGKERELVAVITSRGGSTYYADSVKGRFTISRDNAKNTVYLQMNSLKPEDTAVYYCAADSRQSDYYYQPTKIDYWGQGTQVTVSS ... low polyreactivity
7) QVQLQGSGGGLVQAGGSLRLSCAASGNIFDADIMAWYRQAPGKESELVASITDGGSTNYADSVKGRFTISRDNAKNTVYLQMNSLKQEDTAVYYCADIAYPDIPTYFDYDSDCFYWSQGTQVTVSS ... high polyreactivity
8) QVQLVESGGGLVQAGGSHRLRCAASGRIFWSNTMGWYRQAPGKERELVAAISGRGGSTYYADSVKGRFTISRDNAKNTVYLQMNSLKPEDTAVYYCAARYPAYYEAYDYWGQGTQVTVSS ... low polyreactivity
9) QVQLVESGGGLVQAGGSLRLSCAASGSIFQSNAMGWYRQAPAKESELVAAISSSGGRTYYADSVKGRFTISRDNAKNTVYFQMNSLKPEDTAVYYCAALGYPDGGWGLGTQVTVSS ... low polyreactivity
10) QVQLVESGGGLVQAGGSLRLSCAASGSTFFANAMGWYRQAPGKERELVAAITIGNTNYADSVKGRFTISRDNAKNTVYLQMNSLKPEDTAVYYCNASHVSHYRARDYWGQGTQVTVSS ... low polyreactivity
11) QVQLVDSGGGLVQAGGSLRLSCAASGRTYFWNAMGWYRQAPGKERELVAAITWSGGSTYYADSVKGRFTISRDNAKNTVYLQMNSLKPEDTAVYYCAAVVSDYVWRYEYWGQGTQVTVSS ... low polyreactivity

* * *

Assay Explanation: yeast display, Sf9 membrane polyspecificity reagent, FACS + sequencing; frameworks hold sequencing errors
Readout Name: polyreactivity (PSR sort gate)

1. QVQLVESGGGLVQAGGSLRLSCAASGSTFRLYAMGWYRQAPGKERELVAAISQRGGSTYYADSVKGRFTISRDNAKNTVYLQMNSLKPEDTAVYYCNTDWYRKWGKPYYYWGQGTQVTVSS ... high polyreactivity
2. QVQLVESGGGLVRAGGSLRLSCAASGFVYYVMGWYRQAPGKERELVAAISKGGGRTYYADSVKGRFTISRDNAKNTVYLQMNSLKPEDTAVYYCAAAFWRITRYGMDYWGQGTQVTVSS ... high polyreactivity
3. QVQLVESGGGLVQAGGSLRLSCAASGSTFPYYAMGWYRQAPWKERELVAAIRRRTGSTHYADSVKGRFSISRDNAMNTVYLQMNSLKQEDTAFYYCAADVSYRGNGHGYWGQGTQVNVSS ... low polyreactivity
4. QDQLVESGGGLVQAGGSLRLSCAASGSTFVKNAMGWYRQAPGKERELVATISKSAGRTYYADSVKGRFTISRDNAKNTVYLQMNSLKPEDTAVYYCNVVQKRDFDYWGQGTQVTVSS ... high polyreactivity
5. QVQLVDSGGCLFQAGGTLRLSCAASGFTLRAYAMGWYRQGPGKEREFVAVISRSDGSTYYADTVKGRFTISRENAKNTVYLQMNSLKPEDSAVYYCADKHRGAKYDYWGQGTQVTVSS ... low polyreactivity

* * *

Assay Explanation: yeast display, Sf9 membrane polyspecificity reagent, FACS + sequencing; frameworks hold sequencing errors
Readout Name: polyreactivity (PSR sort gate)

1. QVQLVESGGGLVQAGGSLRLSCAASGITFRYYAMGWYRPAPGKERELVAALTSGGSTNYADSVKGRFTISRDNAKNTVYLQMNSLIPEDTAVYYCAATSYYRTNYGLVFLYRRNYWGQGTQVTVSS ... high polyreactivity
2. QDQLVESGGGLVQAGGSLRLSCAASGIILPRYAMGWYRQAPGKERELVAAISRGGGTYYADSVKGRFTISRDNAKNSVYLQMNSLKPEDTAFYYCDAAYVFVGSSHYYWGQGTQVTVSS ... high polyreactivity
3. QVQLVESGGGLVQAGGSLRLSCAASGFTFYGNAMGWYRQAPGKERELVAAISGRGGSTYYADSVKGRFTISRDNAKNTVYLQMNSLKPEVTAVYYCAIYVSWPLYYYWGQGTQVTVSS ... low polyreactivity
4. QVQLVESGGGLVQAGGSLRLSCAAYGSIFVWYDMGWYRQAPGKERELVATISLSGVSTYYADSVKGRFTISRDNAKNTVYLQMNCLKPEDSAVYYCAADFVEQGEDDYWGQGTQLTVSS ... low polyreactivity
5. QVQLVESGGGLVQAGGSLRLSCAASGSTFRYNDMGWYRQAPGKERELVADITSGGGTYYADSVKGRFTISRDNAKNTVYLQMNSLKPEDTAVYYCNADGFYDYPGWYGLVYWYDYWGQGTQVTVSS ... high polyreactivity
6. QVQRVESGGGLGLAGGSLRLSCAASGITFVLYALGGYRQAPGKERALVASITWDATDTYYADSVKGRFTISRDNAKNTEYIPMNSLKPDDTAVSYCNAAYYNYWWLEYDYWGQGTQVTVSS ... high polyreactivity
7. QVQLVESGGGLVQAGGSLRLSCAASGSTLDVYAMGWYRQAPGKERELVAAITVRATSTYYADSVKGRFTISRDNAKNTVYLQMNSQKPEDTAVYYCDARYEFFYKAFDVDSWGQGTQVTVSS ... low polyreactivity
8. QVQLVESGGGLVQAGGSLRLSCAASGFTFVYYAMGWYRQAPGKERELVAAISRRGGNTNYADSVKGRFTISRDNEKNTVYLQMNSLKTEDTAVYYCNARLTGDRYYYYPMDYWGQGTQVTVST ... high polyreactivity
9. QVQLAESGGGLVQAGGSLRLSCAASGIIFVYNAMGWYIKAPGKERELVAVISFIGDSTYYADSVKGRFTISRDNAKNTVYLQMNSLKPEDTAVYYCAADYYMPYWFFVGYDYWGQGTQVTVSS ... low polyreactivity
10. QVQLVESGGGLFQAGGSLRLSCAASGSTFGWNAMGWYRHAPGKERELVAAINKSGGRTYYADSVKGRFTISRDNAKNTVYLQMISLKPEDTAVYYCAAVTPIRVTSPDYDYWGQGTQVTVSS ... low polyreactivity
11. QVQLVESGGGLVQAGGSLRLSCAASGGTFGRNVMGWYRQAPGKERELVAAISIRGGSTYYADSVKGRCTISRDNAKNTVYLQMNSLKAEDTAVYYCARDYPTDAYDYWGQGTQVTVSS ... low polyreactivity
